The values you see were collected from the Human Domainome abundance scans (Beltran et al. 2025).

B1: Tyrosine-protein kinase BTK, residues 215 to 273; numbered along this chain, Q06187 (parent)
chain: ELKKVVALYDYMPMNANDLQLRKGDEYFILEESNLPWWRARDKNGQEGYIPSNYVTEAE

Variants of: B1
Test: abundance fitness (aPCA) (normalised: wild type 0, dead -1); higher = more abundant; growth selection in yeast, the domain comes from the species named
Details: Homo sapiens
Values of abundance fitness greater than or equal to -0.06 map to Condition met; values below map to Condition not met.

Check out these entries, answers already filled in.
• A58T = Condition met
• N17V = Condition not met
• W38S = Condition met
• E31D = Condition met

Check the entry `E32H` : does abundance fitness equal or exceed -0.06?
Condition not met
